These data points were gathered from the supplement of paper PMC10567573.

B1: RAB11A (parent)
chain: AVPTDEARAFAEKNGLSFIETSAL

- Variants of: B1
- ASSAY_METHOD_TEXT: protein stability index of a GFP-peptide fusion (GPS, HEK-293T) (PSI 1-6); higher = more stable;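 further: lentivirally expressed fusions sorted by FACS into six bins by GFP to DsRed ratio, PSI derived from sequencing read proportions per bin multiplied by bin number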
- MEASUREMENT_CONDITIONS: c terminus: a fixed tail appended
A collection of variants and their measured protein stability index
QUANTITY_MEASURED: protein stability index

   variant_annotation        quantity_measured  observed_value
0                G15K  protein stability index            2.92
1                N14S  protein stability index            2.95
2                S22G  protein stability index            2.91
